Tested on: Pseudomonas aeruginosa P1021903
Format: cell-based
test parameters: P1021903
Non-standard residues stand in square brackets, D forms with d. Residues, ends and D or L forms follow the SMILES beside them. Chg = N[C@H](C(=O)O)C1CCCCC1; dDab = NCC[C@@H](N)C(=O)O; Orn = NCCC[C@H](N)C(=O)O; Dab = NCC[C@H](N)C(=O)O
Please respond with reported MIC P. aeruginosa P1021903 for every item in the list.
Number only, in µg/mL; omit the unit.

Per the record, CC[C@H](C)[C@@H]1NC(=O)[C@H](Cc2c[nH]c3ccccc23)NC(=O)[C@H]([C@@H](C)O)NC(=O)[C@@H]2CCCN2C(=O)[C@H]2CCCN2C(=O)[C@H](CCN)NC(=O)[C@H](C)NC(=O)[C@H](CCN)NC(=O)[C@H](CCN)NC(=O)[C@H](Cc2c[nH]c3ccccc23)NC(=O)[C@H](CCN)NC(=O)[C@@H](CCN)NC(=O)[C@H](CCCN)NC(=O)[C@H](CCN)NC1=O [Example 48] (cyclo(TWI[Dab][Orn][dDab][Dab]W[Dab][Dab]A[Dab][dP]P)) has MIC P. aeruginosa P1021903 of 0.02

// sample CC[C@H](C)[C@@H]1NC(=O)[C@H](Cc2c[nH]c3ccccc23)NC(=O)[C@H]([C@@H](C)O)NC(=O)[C@@H]2CCCN2C(=O)[C@H]2CCCN2C(=O)[C@H](CCN)NC(=O)[C@H](CCC(N)=O)NC(=O)[C@H](CCN)NC(=O)[C@H](CCN)NC(=O)[C@H](Cc2c[nH]c3ccccc23)NC(=O)[C@H](CCN)NC(=O)[C@H](CCN)NC(=O)[C@H](CCCCN)NC(=O)[C@H](CCN)NC1=O [Example 13] (cyclo(TWI[Dab]K[Dab][Dab]W[Dab][Dab]Q[Dab][dP]P)) , its MIC P. aeruginosa P1021903 was 0.40

MIC P. aeruginosa P1021903 for CC[C@H](C)[C@@H]1NC(=O)[C@H](Cc2c[nH]c3ccccc23)NC(=O)[C@H]([C@@H](C)O)NC(=O)[C@@H]2CCCN2C(=O)[C@H]2CCCN2C(=O)[C@H](CCN)NC(=O)[C@H](C2CCCCC2)NC(=O)[C@H](CCN)NC(=O)[C@H](CCN)NC(=O)[C@H](Cc2c[nH]c3ccccc23)NC(=O)[C@H](CCN)NC(=O)[C@H](CCN)NC(=O)[C@H](CCCCN)NC(=O)[C@H](CCN)NC1=O [Example 11] (cyclo(TWI[Dab]K[Dab][Dab]W[Dab][Dab][Chg][Dab][dP]P)) is 2.00

The reported value for CC[C@H](C)[C@@H]1NC(=O)[C@H](Cc2c[nH]c3ccccc23)NC(=O)[C@H](CCC(=O)O)NC(=O)[C@@H]2CCCN2C(=O)[C@H]2CCCN2C(=O)[C@H](CCN)NC(=O)[C@H](C)NC(=O)[C@H](CCN)NC(=O)[C@H](CCN)NC(=O)[C@H](Cc2c[nH]c3ccccc23)NC(=O)[C@H](CCN)NC(=O)[C@@H](CCN)NC(=O)[C@H](CCCN)NC(=O)[C@H](CCN)NC1=O [Example 47] (cyclo(EWI[Dab][Orn][dDab][Dab]W[Dab][Dab]A[Dab][dP]P)) in terms of MIC P. aeruginosa P1021903 is 0.13

Recorded MIC P. aeruginosa P1021903 (compound CC[C@H](C)[C@@H]1NC(=O)[C@H](Cc2c[nH]c3ccccc23)NC(=O)[C@H]([C@@H](C)O)NC(=O)[C@@H]2CCCN2C(=O)[C@H]2CCCN2C(=O)[C@H](CCN)NC(=O)[C@H](C)NC(=O)[C@H](CCN)NC(=O)[C@H](CCN)NC(=O)[C@H](Cc2c[nH]c3ccccc23)NC(=O)[C@H](Cc2c[nH]cn2)NC(=O)[C@H](CCN)NC(=O)[C@H](CCCCN)NC(=O)[C@H](CCN)NC1=O [Example 21] (cyclo(TWI[Dab]K[Dab]HW[Dab][Dab]A[Dab][dP]P)) ): 0.21

----------
Test system: P. aeruginosa
Non-standard residues stand in square brackets, D forms with d. Residues, ends and D or L forms follow the SMILES beside them. Dab = NCC[C@H](N)C(=O)O
endpoint: Average MIC (µg/mL)
Dear colleague, please return just the value in µg/mL, with no unit written.

Kindly note the recorded Average MIC for CC[C@H](C)[C@@H]1NC(=O)[C@H](Cc2c[nH]c3ccccc23)NC(=O)[C@H]([C@@H](C)O)NC(=O)[C@@H]2CCCN2C(=O)[C@H]2CCCN2C(=O)[C@H](CCN)NC(=O)[C@H](C)NC(=O)[C@H](CCN)NC(=O)[C@H](CCN)NC(=O)[C@H](Cc2ccc(O)cc2)NC(=O)[C@H](CCN)NC(=O)[C@H](CCN)NC(=O)[C@H](CCCCN)NC(=O)[C@H](CCN)NC1=O [Example 20] (cyclo(TWI[Dab]K[Dab][Dab]Y[Dab][Dab]A[Dab][dP]P)) , which is 0.48

----------
assay comment: in vivo
Set-up: species or system CD-1 mice
test parameters: CD-1, mouse, iv, 1 mg/kg
Non-standard residues stand in square brackets, D forms with d. Residues, ends and D or L forms follow the SMILES beside them. Dab = NCC[C@H](N)C(=O)O
endpoint: Vd (L/kg)
Write the number in L/kg without appending the unit.

// Vd value for CC[C@H](C)[C@@H]1NC(=O)[C@H](Cc2c[nH]c3ccccc23)NC(=O)[C@H]([C@@H](C)O)NC(=O)[C@@H]2CCCN2C(=O)[C@H]2CCCN2C(=O)[C@H](CCN)NC(=O)[C@H](C)NC(=O)[C@H](CCN)NC(=O)[C@H](CCN)NC(=O)[C@H](Cc2c[nH]c3ccccc23)NC(=O)[C@H](CCN)NC(=O)[C@H](CCN)NC(=O)[C@H](CCCCN)NC(=O)[C@H](CCN)NC1=O [Example 1] (cyclo(TWI[Dab]K[Dab][Dab]W[Dab][Dab]A[Dab][dP]P)) : 1.14

----------
assay comment: in vivo
Design: species or system CD-1 mice
test parameters: mouse, 5 mg/kg, Bioavailability
Protocol: Pharmacokinetic Study after Single Intravenous, Subcutaneous and Intraperitoneal Administration in Mice Pharmacokinetic study after single intravenous (i.v.) and subcutaneous (s.c.) administration was performed for the compound of Example 1 (“Ex. 1”). CD-1 mice (20-25 g) were used in the study. […] The area under the curve AUC was calculated by the linear trapezoidal rule. Elimination half-life was calculated by the linear regression on at least three data points during the elimination phase. […]
Non-standard residues stand in square brackets, D forms with d. Residues, ends and D or L forms follow the SMILES beside them. Dab = NCC[C@H](N)C(=O)O
endpoint: bioavailability (%)
Respond with the bare value in %.

Looking up CC[C@H](C)[C@@H]1NC(=O)[C@H](Cc2c[nH]c3ccccc23)NC(=O)[C@H]([C@@H](C)O)NC(=O)[C@@H]2CCCN2C(=O)[C@H]2CCCN2C(=O)[C@H](CCN)NC(=O)[C@H](C)NC(=O)[C@H](CCN)NC(=O)[C@H](CCN)NC(=O)[C@H](Cc2c[nH]c3ccccc23)NC(=O)[C@H](CCN)NC(=O)[C@H](CCN)NC(=O)[C@H](CCCCN)NC(=O)[C@H](CCN)NC1=O [Example 1] (cyclo(TWI[Dab]K[Dab][Dab]W[Dab][Dab]A[Dab][dP]P)) , I see its bioavailability listed as 118

----------
System: human red blood cells (hRBC)
assay comment: Hemolysis
Format: cell-based
test parameters: 100
Non-standard residues stand in square brackets, D forms with d. Residues, ends and D or L forms follow the SMILES beside them. Ala(cPr) = N[C@@H](CC1CC1)C(=O)O; Chg = N[C@H](C(=O)O)C1CCCCC1; dDab = NCC[C@@H](N)C(=O)O; Nle = CCCC[C@H](N)C(=O)O; Orn = NCCC[C@H](N)C(=O)O; Dab = NCC[C@H](N)C(=O)O
endpoint: Hemolysis at 100 μg/ml

Query CCCC[C@@H]1NC(=O)[C@H](Cc2c[nH]c3ccccc23)NC(=O)[C@H]([C@@H](C)O)NC(=O)[C@@H]2CCCN2C(=O)[C@H]2CCCN2C(=O)[C@H](CCN)NC(=O)[C@H](C)NC(=O)[C@H](CCN)NC(=O)[C@H](CCN)NC(=O)[C@H](Cc2c[nH]c3ccccc23)NC(=O)[C@H](CCN)NC(=O)[C@H](CCN)NC(=O)[C@H](CCCCN)NC(=O)[C@H](CCN)NC1=O [Example 31] (cyclo(TW[Nle][Dab]K[Dab][Dab]W[Dab][Dab]A[Dab][dP]P)) yields Hemolysis at 100 μg/ml of 0.5%

# Hemolysis at 100 μg/ml of CC[C@H](C)[C@@H]1NC(=O)[C@H](Cc2c[nH]c3ccccc23)NC(=O)[C@H]([C@@H](C)O)NC(=O)[C@@H]2CCCN2C(=O)[C@H]2CCCN2C(=O)[C@H](CCN)NC(=O)[C@H](C)NC(=O)[C@H](CCN)NC(=O)[C@H](CCN)NC(=O)[C@H](Cc2c[nH]c3ccccc23)NC(=O)[C@H](CCC(N)=O)NC(=O)[C@H](CCN)NC(=O)[C@H](CCCCN)NC(=O)[C@H](CCN)NC1=O [Example 39] (cyclo(TWI[Dab]K[Dab]QW[Dab][Dab]A[Dab][dP]P)) = 0.4%

So for CC[C@H](C)[C@@H]1NC(=O)[C@H](Cc2c[nH]c3ccccc23)NC(=O)[C@H](C)NC(=O)[C@@H]2CCCN2C(=O)[C@H]2CCCN2C(=O)[C@H](CCN)NC(=O)[C@H](C)NC(=O)[C@H](CCN)NC(=O)[C@H](CCN)NC(=O)[C@H](Cc2c[nH]c3ccccc23)NC(=O)[C@H](CCN)NC(=O)[C@H](CCN)NC(=O)[C@H](CCCCN)NC(=O)[C@H](CCN)NC1=O [Example 22] (cyclo(AWI[Dab]K[Dab][Dab]W[Dab][Dab]A[Dab][dP]P)) , the logged Hemolysis at 100 μg/ml turned out to be 0.2%

In plain terms, CC[C@H](C)[C@@H]1NC(=O)[C@H](Cc2c[nH]c3ccccc23)NC(=O)[C@H]([C@@H](C)O)NC(=O)[C@@H]2CCCN2C(=O)[C@H]2CCCN2C(=O)[C@H](CCN)NC(=O)[C@H](CC2CC2)NC(=O)[C@H](CCN)NC(=O)[C@H](CCN)NC(=O)[C@H](Cc2c[nH]c3ccccc23)NC(=O)[C@H](CCN)NC(=O)[C@H](CCN)NC(=O)[C@H](CCCCN)NC(=O)[C@H](CCN)NC1=O [Example 37] (cyclo(TWI[Dab]K[Dab][Dab]W[Dab][Dab][Ala(cPr)][Dab][dP]P)) has a documented Hemolysis at 100 μg/ml of 0.5%

For CC[C@H](C)[C@@H]1NC(=O)[C@H](Cc2c[nH]c3ccccc23)NC(=O)[C@H]([C@@H](C)O)NC(=O)[C@@H]2CCCN2C(=O)[C@H]2CCCN2C(=O)[C@H](CCN)NC(=O)[C@H](C(C)C)NC(=O)[C@H](CCN)NC(=O)[C@H](CCN)NC(=O)[C@H](Cc2c[nH]c3ccccc23)NC(=O)[C@H](CCN)NC(=O)[C@H](CCN)NC(=O)[C@H](CCCCN)NC(=O)[C@H](CCC(N)=O)NC1=O [Example 30] (cyclo(TWIQK[Dab][Dab]W[Dab][Dab]V[Dab][dP]P)) the molecule record lists Hemolysis at 100 μg/ml as 0.5%

The molecule listed as CC[C@H](C)[C@@H]1NC(=O)[C@H](Cc2c[nH]c3ccccc23)NC(=O)[C@H]([C@@H](C)O)NC(=O)[C@@H]2CCCN2C(=O)[C@H]2CCCN2C(=O)[C@H](CCN)NC(=O)[C@@H](C)NC(=O)[C@H](CCN)NC(=O)[C@H](CCN)NC(=O)[C@H](Cc2c[nH]c3ccccc23)NC(=O)[C@H](CCN)NC(=O)[C@H](CCN)NC(=O)[C@H](CCCCN)NC(=O)[C@H](CCN)NC1=O [Example 3] (cyclo(TWI[Dab]K[Dab][Dab]W[Dab][Dab][dA][Dab][dP]P)) has a reported Hemolysis at 100 μg/ml of 0.6%

Record summary for C[C@@H]1NC(=O)[C@H](CCN)NC(=O)[C@H](CCN)NC(=O)[C@H](Cc2c[nH]c3ccccc23)NC(=O)[C@H](CCN)NC(=O)[C@H](CCN)NC(=O)[C@H](CCCCN)NC(=O)[C@H](CCN)NC(=O)[C@H](C2CCCCC2)NC(=O)[C@H](Cc2c[nH]c3ccccc23)NC(=O)[C@H]([C@@H](C)O)NC(=O)[C@@H]2CCCN2C(=O)[C@H]2CCCN2C(=O)[C@H](CCN)NC1=O [Example 33] (cyclo(TW[Chg][Dab]K[Dab][Dab]W[Dab][Dab]A[Dab][dP]P)) : reported Hemolysis at 100 μg/ml = 0.1%

get_value(item= CC[C@H](C)[C@@H]1NC(=O)[C@H](Cc2ccc(O)cc2)NC(=O)[C@H](CC(=O)O)NC(=O)[C@@H]2CCCN2C(=O)[C@H]2CCCN2C(=O)[C@H](CCN)NC(=O)[C@H](C)NC(=O)[C@H](CCN)NC(=O)[C@H](CCN)NC(=O)[C@H](Cc2c[nH]c3ccccc23)NC(=O)[C@H](CCN)NC(=O)[C@@H](CCN)NC(=O)[C@H](CCCN)NC(=O)[C@H](CCN)NC1=O [Example 43] (cyclo(DYI[Dab][Orn][dDab][Dab]W[Dab][Dab]A[Dab][dP]P)) , readout=Hemolysis at 100 μg/ml) returns 0.5%

In plain terms, CC[C@H](C)[C@@H]1NC(=O)[C@H](Cc2c[nH]c3ccccc23)NC(=O)[C@H]([C@@H](C)O)NC(=O)[C@@H]2CCCN2C(=O)[C@H]2CCCN2C(=O)[C@H](CCN)NC(=O)[C@H](C)NC(=O)[C@H](CCN)NC(=O)[C@H](CCN)NC(=O)[C@H](Cc2c[nH]c3ccccc23)NC(=O)[C@H](CCN)NC(=O)[C@@H](CCN)NC(=O)[C@H](CCCCN)NC(=O)[C@H](CCN)NC1=O [Example 41] (cyclo(TWI[Dab]K[dDab][Dab]W[Dab][Dab]A[Dab][dP]P)) has a documented Hemolysis at 100 μg/ml of 0.2%

Hello, the source for this data is patent US9521846B2, in case you need it.
